- tested-system: UniProtKB P21397
- Sequence (P21397 whole entry): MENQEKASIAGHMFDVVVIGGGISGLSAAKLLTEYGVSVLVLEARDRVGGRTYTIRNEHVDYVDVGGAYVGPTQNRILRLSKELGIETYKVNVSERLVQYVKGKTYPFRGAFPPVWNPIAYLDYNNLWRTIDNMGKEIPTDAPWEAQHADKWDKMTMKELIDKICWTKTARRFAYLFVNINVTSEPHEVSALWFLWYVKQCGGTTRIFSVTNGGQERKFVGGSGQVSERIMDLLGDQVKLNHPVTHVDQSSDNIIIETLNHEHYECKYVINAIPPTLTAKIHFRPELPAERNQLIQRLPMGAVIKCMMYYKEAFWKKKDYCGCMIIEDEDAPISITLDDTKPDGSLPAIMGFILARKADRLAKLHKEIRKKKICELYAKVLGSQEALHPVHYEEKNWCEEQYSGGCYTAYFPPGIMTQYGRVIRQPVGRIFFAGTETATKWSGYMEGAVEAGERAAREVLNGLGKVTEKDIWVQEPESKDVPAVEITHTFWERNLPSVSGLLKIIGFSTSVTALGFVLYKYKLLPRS
- test-protocol: Inhibition of recombinant MAO-A (unknown origin) using luciferin substrate at 10 uM preincubated for 15 mins followed by substrate addition measured after 1 hr by luciferase based assay relative to control
- conditions-used: probe luciferin substrate, time 75 min
property-name: inhibition at 1 h, 10 µM

>  <compound>
Oc1ccc(CC2NCCc3cc(O)c(O)cc32)cc1 (stereo unspecified)

>  <value-measured>
< 15%

$$$$
